Tested on: A2 receptors (Bos taurus)
Sequence (E1BKU0 1-401): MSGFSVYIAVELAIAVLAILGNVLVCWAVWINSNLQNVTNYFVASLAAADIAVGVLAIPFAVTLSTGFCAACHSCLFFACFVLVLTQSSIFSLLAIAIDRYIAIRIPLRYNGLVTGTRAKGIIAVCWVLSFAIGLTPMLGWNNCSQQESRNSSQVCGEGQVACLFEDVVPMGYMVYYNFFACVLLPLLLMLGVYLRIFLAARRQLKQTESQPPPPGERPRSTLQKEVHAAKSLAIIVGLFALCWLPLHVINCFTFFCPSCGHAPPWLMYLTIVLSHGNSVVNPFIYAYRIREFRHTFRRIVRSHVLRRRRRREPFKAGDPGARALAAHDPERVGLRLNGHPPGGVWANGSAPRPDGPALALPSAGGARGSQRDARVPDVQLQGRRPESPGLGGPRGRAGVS
pKi: −log10 of the molar value.
Measured property: pKi

{"columns": ["Molecule", "Tested on", "Measured property", "Measured result"],
 "data": [
  ["Cn1cnc2c(N[C@H]3C[C@H]4CC[C@@H]3C4)ncnc21 (relative stereo) [compound 0861, N^6-(endo-2-Norbornyl)-9-Methyladenine]", "A2 receptors (Bos taurus)", "pKi", 5.16]
]}

----------
Tested on: A2 receptors (Rattus norvegicus, UniProt P30543)
Construct: Rat PC12 Membranes; endogenous in cells; host or cells: PC12
Sequence (P30543 whole entry): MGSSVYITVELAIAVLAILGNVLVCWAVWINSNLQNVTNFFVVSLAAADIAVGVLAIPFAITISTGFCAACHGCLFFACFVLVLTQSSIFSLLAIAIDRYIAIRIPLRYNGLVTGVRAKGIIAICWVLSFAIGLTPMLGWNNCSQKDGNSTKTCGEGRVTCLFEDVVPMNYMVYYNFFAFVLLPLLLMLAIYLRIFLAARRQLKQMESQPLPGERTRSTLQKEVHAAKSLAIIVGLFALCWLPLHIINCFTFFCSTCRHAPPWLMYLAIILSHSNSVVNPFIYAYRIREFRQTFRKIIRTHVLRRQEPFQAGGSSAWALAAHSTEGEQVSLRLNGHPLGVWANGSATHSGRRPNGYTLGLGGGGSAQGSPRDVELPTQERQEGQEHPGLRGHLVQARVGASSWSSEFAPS
Measurement description: antagonism of NECA-stimulated adenylate cyclase in rat PC12 membranes (B)
Type: biochemical
Measurement conditions: (B) Rat PC12 Membranes; A2 Effects
Labelling field: enter label 1 if recorded Kb is less than 100 µM. Enter label 0 if it equals or exceeds that cut-off.

{"columns": ["Cpd smiles", "Tested on", "Classification"],
 "data": [
  ["Cn1cnc2c(NC3CCC3)ncnc21", "A2 receptors (Rattus norvegicus, UniProt P30543)", "label 1"],
  ["C[C@@H](Cc1ccccc1)Nc1ncnc2c1ncn2C", "A2 receptors (Rattus norvegicus, UniProt P30543)", "label 1"],
  ["Cn1cnc2c(NCCc3ccccc3)ncnc21", "A2 receptors (Rattus norvegicus, UniProt P30543)", "label 0"],
  ["Cn1cnc2c(NC3CCCCC3)ncnc21", "A2 receptors (Rattus norvegicus, UniProt P30543)", "label 1"],
  ["CCC(CC)Nc1ncnc2c1ncn2C", "A2 receptors (Rattus norvegicus, UniProt P30543)", "label 1"],
  ["C[C@H](Cc1ccccc1)Nc1ncnc2c1ncn2C", "A2 receptors (Rattus norvegicus, UniProt P30543)", "label 1"],
  ["Cn1cnc2c(Nc3ccccc3)ncnc21", "A2 receptors (Rattus norvegicus, UniProt P30543)", "label 0"]
]}

----------
Below is a list of entries, each paired with its recorded Kb value.
Tested on: A2 receptors (Homo sapiens)
Construct: Human Platelet Membranes; from tissue; host or cells: human platelets (membranes)
Sequence (P29274 whole entry): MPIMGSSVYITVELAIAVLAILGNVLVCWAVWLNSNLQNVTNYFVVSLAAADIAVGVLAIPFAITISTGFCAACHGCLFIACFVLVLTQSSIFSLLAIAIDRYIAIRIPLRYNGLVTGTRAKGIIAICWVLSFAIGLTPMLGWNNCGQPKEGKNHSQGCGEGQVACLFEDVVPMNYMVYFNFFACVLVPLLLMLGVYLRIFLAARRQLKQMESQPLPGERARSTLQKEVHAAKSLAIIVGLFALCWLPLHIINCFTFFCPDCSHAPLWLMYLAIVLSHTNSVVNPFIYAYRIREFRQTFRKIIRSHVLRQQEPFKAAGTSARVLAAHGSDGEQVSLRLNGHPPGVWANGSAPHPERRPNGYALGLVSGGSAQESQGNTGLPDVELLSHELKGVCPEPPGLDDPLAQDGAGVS
Measurement description: antagonism of NECA-stimulated adenylate cyclase in human platelet membranes (A)
Format: biochemical
Measurement conditions: (A) Human Platelet Membranes; A2 Effects

{"columns": ["Cpd smiles", "Kb (µM)"],
 "data": [
  ["Cn1cnc2c(Nc3ccccc3F)ncnc21", 11],
  ["C[C@H](Cc1ccccc1)Nc1ncnc2c1ncn2C", 13],
  ["Cn1cnc2c(Nc3ccccc3)ncnc21", 21],
  ["Cn1cnc2c(NC3CCC3)ncnc21", 5.5],
  ["Cn1cnc2c(NCCc3cccnc3)ncnc21", 92],
  ["Cn1cnc2c(NC3CCCCC3)ncnc21", 7.4],
  ["Cn1cnc2c(NCCc3ccsc3)ncnc21", 14],
  ["CCC(CC)Nc1ncnc2c1ncn2C", 11]
]}

----------
Below is a list of entries, each paired with its recorded pKi value.
Tested on: rat cortical A1 receptors (Rattus norvegicus, UniProt P25099)
Construct: rat cortical membranes were the receptor source; from tissue; host or cells: rat cerebral cortex (male Sprague Dawley) membranes
Sequence (P25099 1-326): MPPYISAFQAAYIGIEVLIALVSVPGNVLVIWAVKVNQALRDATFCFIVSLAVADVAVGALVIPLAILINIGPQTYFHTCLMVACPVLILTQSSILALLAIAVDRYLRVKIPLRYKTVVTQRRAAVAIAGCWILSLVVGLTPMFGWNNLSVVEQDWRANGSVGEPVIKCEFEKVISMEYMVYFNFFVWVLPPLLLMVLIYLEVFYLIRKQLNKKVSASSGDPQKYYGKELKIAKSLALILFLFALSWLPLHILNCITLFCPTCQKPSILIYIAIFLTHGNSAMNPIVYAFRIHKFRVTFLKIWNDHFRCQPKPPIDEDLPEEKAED
Measurement description: displacement of [3H]-CHA from rat cortical A1 receptors
Type: binding
Measurement conditions: [3H]-CHA; rat cortical A1 receptors; read-out: Rat Cortical Binding Constant Ki
pKi: −log10 of the molar value.
Measured property: pKi

{"columns": ["Cpd smiles", "Measured result"],
 "data": [
  ["Cn1cnc2c(Nc3cccs3)ncnc21", "< 4.00"],
  ["C[C@H](Nc1ncnc2c1ncn2C)c1ccccc1", "< 4.00"],
  ["Cn1cnc2c(NCCc3ccccc3)ncnc21", "< 5.00"]
]}
